target-system: hGALK1 (Homo sapiens, UniProt P51570, E253A/K252A)
Construct: A hGALK1 construct, encoding full-length protein harboring the surface entropy[41] mutations K252A:E253A; His6 (N); made in house; host or cells: E. coli BL21(DE3)
test-method-notes: Kinase-Glo luminescent hGALK1 activity assay
Assay type: biochemical
stated-conditions: biological replicate N2; read-out: Kinase-Glo N2 IC50
pIC50: −log10 of the molar value.
outcome-measure: pIC50

input_smiles=O=C(CNc1cnc2cc(Cl)c(Cl)cc2n1)NC1CC1 value_measured=3.94
input_smiles=COCCNC(=O)CNc1cnc2cc(Cl)c(Cl)cc2n1 value_measured=4.02

* * *

target-system: T1, hGALK1 (Homo sapiens, UniProt P51570, E253A/K252A)
T1 construct: A hGALK1 construct, encoding full-length protein harboring the surface entropy[41] mutations K252A:E253A; His6 (N); made in house; host or cells: E. coli BL21(DE3)
T1 sequence (P51570 whole entry K252A/E253A): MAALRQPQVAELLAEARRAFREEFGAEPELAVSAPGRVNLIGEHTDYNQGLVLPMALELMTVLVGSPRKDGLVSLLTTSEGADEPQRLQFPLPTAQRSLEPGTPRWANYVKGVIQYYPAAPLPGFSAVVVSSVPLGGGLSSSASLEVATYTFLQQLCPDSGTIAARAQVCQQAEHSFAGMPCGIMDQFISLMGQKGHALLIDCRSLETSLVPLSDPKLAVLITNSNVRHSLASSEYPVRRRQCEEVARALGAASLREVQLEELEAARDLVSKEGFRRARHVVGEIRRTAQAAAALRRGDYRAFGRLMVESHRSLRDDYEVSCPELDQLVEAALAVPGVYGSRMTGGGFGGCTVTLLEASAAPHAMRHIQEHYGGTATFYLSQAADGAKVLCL
test-method-notes: Kinase-Glo luminescent hGALK1 activity assay
Format: biochemical
Parameters: unit not given here
stated-conditions: 35 µM ATP; maximum tested concentration: 1 mM T1, 15 mM fragment 3, 2 mM 11–13
outcome-measure: Vmaxapp, substrate galactose, with ligand (+)

Some molecules with known Vmaxapp, substrate galactose, with ligand (+) results, for comparison:
molecule=O=C(Cc1ccc(Cl)cc1)Nc1ncccn1 value_measured=5.1
molecule=O=C(CNc1cnc2cc(Cl)c(Cl)cc2n1)NC1CC1 value_measured=3.7

(1) COc1ccc(Cl)cc1C(=O)NC1CCN(c2ncccn2)CC1
(2) COCCNC(=O)CNc1cnc2cc(Cl)c(Cl)cc2n1
Incoming: Between the entries labeled 1 and 2 , whose measured Vmaxapp, substrate galactose, with ligand (+) is lower? # answer = label of selected item
Outgoing: 1
(1: 4.4, 2: 9.4)

* * *

target-system: T1, hGALK1 (Homo sapiens, UniProt P51570, E253A/K252A)
T1 construct: A hGALK1 construct, encoding full-length protein harboring the surface entropy[41] mutations K252A:E253A; His6 (N); made in house; host or cells: E. coli BL21(DE3)
test-method-notes: Kinase-Glo luminescent hGALK1 activity assay
Format: biochemical
Set-up: unit not given here
stated-conditions: 35 µM ATP; maximum tested concentration: 1 mM T1, 15 mM fragment 3, 2 mM 11–13
outcome-measure: Kmapp, substrate galactose, with ligand (+)

Some molecules with known Kmapp, substrate galactose, with ligand (+) results, for comparison:
molecule="O=C(CNc1cnc2cc(Cl)c(Cl)cc2n1)NC1CC1 [compound 11]" value_measured=36.5
molecule="O=C(Cc1ccc(Cl)cc1)Nc1ncccn1 [fragment 3]" value_measured=184.2

(A) COCCNC(=O)CNc1cnc2cc(Cl)c(Cl)cc2n1 [compound 12]
(B) COc1ccc(Cl)cc1C(=O)NC1CCN(c2ncccn2)CC1 [compound 13]
Incoming: When their Kmapp, substrate galactose, with ligand (+) values are compared, which is larger, A or B ? # answer = label of selected item
Outgoing: B
(B: 143.6, A: 41.5)

* * *

target-system: hGALK1 (Homo sapiens, UniProt P51570, E253A/K252A)
Construct: A hGALK1 construct, encoding full-length protein harboring the surface entropy[41] mutations K252A:E253A; His6 (N); made in house; host or cells: E. coli BL21(DE3)
test-method-notes: Kinase-Glo luminescent hGALK1 activity assay
Assay type: biochemical
stated-conditions: concentration achieving 50% inhibition, IC50 not determinable, lower potency
outcome-measure: IC50

IC50 reported for this compound COc1ccc(Cl)cc1C(=O)NC1CCN(c2ncccn2)CC1 [compound 13] : ~1000 µM
